Assayed system: CD74 (human), P04233
Sequence (P04233 whole entry): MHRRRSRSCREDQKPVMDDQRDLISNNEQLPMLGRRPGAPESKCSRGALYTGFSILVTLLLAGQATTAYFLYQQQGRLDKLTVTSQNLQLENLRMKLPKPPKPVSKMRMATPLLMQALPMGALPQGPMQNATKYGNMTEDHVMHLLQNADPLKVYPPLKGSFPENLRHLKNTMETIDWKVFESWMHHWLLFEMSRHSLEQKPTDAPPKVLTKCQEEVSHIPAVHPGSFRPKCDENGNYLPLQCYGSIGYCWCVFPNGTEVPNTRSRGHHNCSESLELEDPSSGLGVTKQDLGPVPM
Assay summary: cell-based or functional assay

Binder: Conjugate B (anti-CD74 IgG-PEG4-maytansine conjugate) (antibody, V domains shown, here or on the partner: modified amino acid residue 30 (pAMF) according to Example 2, position not stated for this conjugate, linked to a PEG4-maytansine linker-payload) VH: QVQLVESGGGVVQPGRSLRLSCAASGFNFSDYGMHWVRQAPGKGLEWVAVIWYDGSISYYADSVKGRFTISRDNSKNTLYLQMNSLRAEDTAVYYCARGGTVEHGAVYGTDVWGQGTTVTVSS VL: DIQMTQSPSSVSASVGDRVTITCRASQGIGSWLAWYQQKPGKAPKLLIYAADRLQSGVPSRFSGSGSGTDFTLTISSLQPEDFATYYCQQYHTYPLTFGGGTKVEIK
cell killing IC50, RPMI-6666 (HL) cells (nM): 1.3

Binder: Conjugate C (anti-CD74 IgG-val-cit-PAB-hemiasterlin conjugate) (antibody, V domains shown, here or on the partner: modified amino acid residue 30 (pAMF) according to Example 2, position not stated for this conjugate, linked to val-cit-PAB-hemiasterlin) VH: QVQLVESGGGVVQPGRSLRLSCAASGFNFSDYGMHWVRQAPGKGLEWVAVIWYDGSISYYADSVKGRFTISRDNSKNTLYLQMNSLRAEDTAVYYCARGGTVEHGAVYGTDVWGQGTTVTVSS VL: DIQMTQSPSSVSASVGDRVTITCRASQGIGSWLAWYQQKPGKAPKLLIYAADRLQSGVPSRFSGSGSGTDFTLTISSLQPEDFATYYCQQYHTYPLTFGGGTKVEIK
cell killing IC50, RPMI-6666 (HL) cells (nM): 0.9

Binder: Conjugate A (anti-CD74 IgG-DBCO-PEG4-maytansine conjugate) (antibody, V domains shown, here or on the partner: para-azidomethyl-L-phenylalanine (pAMF, residue 30) at heavy chain EU position 404 (constant region, outside SEQ ID NO 236), linked to DBCO-PEG4-maytansine) VH: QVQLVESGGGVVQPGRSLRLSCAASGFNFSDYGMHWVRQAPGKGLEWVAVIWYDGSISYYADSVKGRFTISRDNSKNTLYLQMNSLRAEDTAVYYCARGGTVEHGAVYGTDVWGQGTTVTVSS VL: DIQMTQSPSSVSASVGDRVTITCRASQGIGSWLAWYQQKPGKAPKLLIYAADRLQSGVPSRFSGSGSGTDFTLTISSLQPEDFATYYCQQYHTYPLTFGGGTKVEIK
cell killing IC50, RPMI-6666 (HL) cells (nM): 1

Binder: Conjugate F (anti-CD74 IgG-PEG4-MMAE conjugate) (antibody, V domains shown, here or on the partner: modified amino acid residue 30 (pAMF) according to Example 2, position not stated for this conjugate, linked to PEG4-MMAE) VH: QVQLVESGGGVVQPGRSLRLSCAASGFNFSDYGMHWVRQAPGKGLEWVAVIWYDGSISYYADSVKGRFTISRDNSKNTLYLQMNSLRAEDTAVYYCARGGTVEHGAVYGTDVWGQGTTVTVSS VL: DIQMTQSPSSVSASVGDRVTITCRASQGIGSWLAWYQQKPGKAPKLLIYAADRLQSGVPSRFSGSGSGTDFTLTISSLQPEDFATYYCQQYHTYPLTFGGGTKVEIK
cell killing IC50, RPMI-6666 (HL) cells (nM): 0.7

Binder: Conjugate E (anti-CD74 IgG-PEG4-MMAF conjugate) (antibody, V domains shown, here or on the partner: modified amino acid residue 30 (pAMF) according to Example 2, position not stated for this conjugate, linked to PEG4-MMAF) VH: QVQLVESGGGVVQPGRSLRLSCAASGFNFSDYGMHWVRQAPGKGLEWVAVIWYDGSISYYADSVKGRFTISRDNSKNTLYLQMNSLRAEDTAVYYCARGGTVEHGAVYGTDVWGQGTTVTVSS VL: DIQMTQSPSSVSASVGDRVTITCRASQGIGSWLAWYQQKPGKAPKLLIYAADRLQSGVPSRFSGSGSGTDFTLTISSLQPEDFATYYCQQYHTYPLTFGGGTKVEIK
cell killing IC50, RPMI-6666 (HL) cells (nM): 1.5

Values were extracted from patent US20200207859A1.
